# Test system: PPARa:RXRa (NR concentration 270 nM, RXRa partner concentration 90 nM)
# method_summary: PBM binding z-score (relative to random genomic background probes); higher = stronger binding; sequences stand for … in GC…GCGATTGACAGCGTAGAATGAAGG
Could you please report measured PBM binding z-score for the items listed next?
Response field accepts a number only; no unit should be typed.

**Q:** # PBM binding z-score lookup, item "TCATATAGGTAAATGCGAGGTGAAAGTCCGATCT"
**A:** 2.07

**Q:** // query PBM binding z-score value for entry "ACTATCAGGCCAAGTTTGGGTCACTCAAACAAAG"
**A:** 1.51

**Q:** What value of PBM binding z-score has been recorded for this entry: "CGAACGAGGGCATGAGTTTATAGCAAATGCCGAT"
**A:** 1.43

**Q:** # query: PBM binding z-score of entry "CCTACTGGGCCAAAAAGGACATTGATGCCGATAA"
**A:** -0.00322

**Q:** Record request: PBM binding z-score value, item "CCTACTGGGCCAAATAGGTCATTGATGCCGATAA"
**A:** 3.18

**Q:** What PBM binding z-score value was documented for this sequence, "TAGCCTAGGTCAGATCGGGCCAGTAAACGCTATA" ?
**A:** 1.5

**Q:** Can you look up the measured PBM binding z-score of "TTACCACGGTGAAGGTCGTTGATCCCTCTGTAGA" for me?
**A:** 1.57

**Q:** PBM binding z-score lookup needed for "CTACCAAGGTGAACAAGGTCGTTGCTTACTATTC" , thanks.
**A:** 2.55

**Q:** What value of PBM binding z-score has been recorded for this entry: "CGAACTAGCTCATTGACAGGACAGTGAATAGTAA"
**A:** -0.257

**Q:** What does the record list as PBM binding z-score for "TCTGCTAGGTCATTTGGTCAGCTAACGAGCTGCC" ?
**A:** 3.19

**Q:** Need PBM binding z-score of "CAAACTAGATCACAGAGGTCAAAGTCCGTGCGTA" , thanks.
**A:** 5.26

**Q:** Please look up its PBM binding z-score: "GATACAGGGTTAAGGCCAGAGTACGCGTATTGAT"
**A:** 2.23

**Q:** Which PBM binding z-score reading was recorded for the sequence "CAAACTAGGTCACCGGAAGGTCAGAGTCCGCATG" ?
**A:** 5.96

**Q:** Data request, read-out PBM binding z-score, for "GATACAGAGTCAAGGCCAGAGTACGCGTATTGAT"
**A:** -0.293

**Q:** Using the record for "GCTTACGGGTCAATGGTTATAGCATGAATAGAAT" , report its PBM binding z-score.
**A:** 4.78

**Q:** Record request: PBM binding z-score value, item "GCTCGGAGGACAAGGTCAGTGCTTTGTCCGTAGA"
**A:** 1.94

**Q:** What PBM binding z-score value was documented for this sequence, "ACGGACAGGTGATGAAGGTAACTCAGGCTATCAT" ?
**A:** 0.276

**Q:** So what's the measured PBM binding z-score for this one? "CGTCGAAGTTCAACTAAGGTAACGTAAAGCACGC"
**A:** 3.15

* * *

Could you please report measured PBM binding z-score for the items listed next?
# System: VDR:RXRa (NR concentration 270 nM, RXRa partner concentration 90 nM)
# method_summary: PBM binding z-score (relative to random genomic background probes); higher = stronger binding; sequences stand for … in GC…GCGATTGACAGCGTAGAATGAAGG
I'd appreciate a reply containing only the number, no unit.

**Q:** Data request, read-out PBM binding z-score, for "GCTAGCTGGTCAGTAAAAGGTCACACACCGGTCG"
**A:** 3.52

**Q:** What does the data say about its PBM binding z-score? Entry: "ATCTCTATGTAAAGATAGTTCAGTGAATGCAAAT"
**A:** 0.557

**Q:** Which PBM binding z-score value belongs to "ATCGAAAGGCCGAAGGTGAGTATACCCACCCGAA" ?
**A:** -0.338

**Q:** What PBM binding z-score value was documented for this sequence, "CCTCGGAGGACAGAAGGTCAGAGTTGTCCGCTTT" ?
**A:** 1.12

**Q:** What value of PBM binding z-score has been reported for the following sequence? "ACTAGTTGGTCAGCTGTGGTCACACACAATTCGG"
**A:** 0.029

**Q:** Which PBM binding z-score is listed for "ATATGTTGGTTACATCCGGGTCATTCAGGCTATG" ?
**A:** 3.42

**Q:** Could you tell me which PBM binding z-score is on file for "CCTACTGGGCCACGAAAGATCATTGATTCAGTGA" ?
**A:** -0.306

**Q:** // PBM binding z-score lookup, key: "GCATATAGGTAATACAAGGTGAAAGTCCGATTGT"
**A:** 0.299

**Q:** Request the reported PBM binding z-score associated with "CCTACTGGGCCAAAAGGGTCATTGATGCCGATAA"
**A:** 4.44

**Q:** Data request, read-out PBM binding z-score, for "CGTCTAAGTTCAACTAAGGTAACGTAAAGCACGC"
**A:** 4.12

**Q:** Which PBM binding z-score is reported for this sequence? "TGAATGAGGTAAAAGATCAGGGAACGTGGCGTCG"
**A:** -0.131

* * *

For each entry below, report its PBM binding z-score value.
# System: PPARg:RXRa 270nM:90nM, anti-RXR (NR concentration 270 nM, RXRa partner concentration 90 nM)
# method_summary: PBM binding z-score (relative to random genomic background probes); higher = stronger binding; sequences stand for … in GC…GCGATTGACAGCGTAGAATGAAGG

**Q:** // returns reported PBM binding z-score for input "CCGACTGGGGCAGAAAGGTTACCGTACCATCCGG"
**A:** 2.95

**Q:** Data request, read-out PBM binding z-score, for "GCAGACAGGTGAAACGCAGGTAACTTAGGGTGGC"
**A:** 0.226

**Q:** # query: PBM binding z-score of entry "AATATAGGGTCACTAGGCCAGAGTAGGTACGAAT"
**A:** 6.68

**Q:** For "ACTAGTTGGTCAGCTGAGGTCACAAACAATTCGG" , what is its reported PBM binding z-score?
**A:** 2.05

**Q:** Sample "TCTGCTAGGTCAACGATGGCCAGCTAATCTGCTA" — what was its PBM binding z-score?
**A:** 2.77

**Q:** I am curious: what PBM binding z-score value has been reported for "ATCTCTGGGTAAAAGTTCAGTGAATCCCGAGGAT" ?
**A:** 7.77

**Q:** Fill blank: measured PBM binding z-score of the sequence "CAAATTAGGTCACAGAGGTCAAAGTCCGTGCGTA" is ____.
**A:** 8.05

**Q:** Quick one: PBM binding z-score for "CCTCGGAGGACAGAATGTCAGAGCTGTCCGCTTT" ?
**A:** -0.901

**Q:** I would be grateful if you could share the reported PBM binding z-score for "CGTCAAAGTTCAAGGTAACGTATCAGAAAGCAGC" .
**A:** 5.03

**Q:** Look up PBM binding z-score for this sequence: "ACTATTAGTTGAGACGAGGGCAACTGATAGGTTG"
**A:** 0.45

**Q:** Fill in: PBM binding z-score of "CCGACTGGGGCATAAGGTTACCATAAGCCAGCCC" is ___
**A:** 3.15

**Q:** Look up PBM binding z-score for this sequence: "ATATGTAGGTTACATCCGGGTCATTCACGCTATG"
**A:** 5.48

**Q:** Record request: PBM binding z-score value, item "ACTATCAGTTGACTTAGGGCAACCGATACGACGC"
**A:** 0.0453

* * *

Please respond with reported PBM binding z-score for every item in the list.
# Tested on: PPARg:RXRa 30nM:10nM, anti-RXR (NR concentration 30 nM, RXRa partner concentration 10 nM)
# method_summary: PBM binding z-score (relative to random genomic background probes); higher = stronger binding; sequences stand for … in GC…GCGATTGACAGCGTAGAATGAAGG
The reply should be a number, written without any unit.

**Q:** Any idea what its PBM binding z-score is? The sequence is "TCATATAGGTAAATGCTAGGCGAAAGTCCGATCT"
**A:** 3.7

**Q:** Could you tell me which PBM binding z-score is on file for "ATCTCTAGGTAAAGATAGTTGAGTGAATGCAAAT" ?
**A:** 0.222

**Q:** Fill blank: measured PBM binding z-score of the sequence "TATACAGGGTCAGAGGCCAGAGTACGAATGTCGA" is ____.
**A:** 3.23

**Q:** Need PBM binding z-score, item "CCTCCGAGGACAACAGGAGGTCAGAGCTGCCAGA"
**A:** -0.642

**Q:** Form field: reported PBM binding z-score of "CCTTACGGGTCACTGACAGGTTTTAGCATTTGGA"
**A:** 1.27

**Q:** Endpoint output: PBM binding z-score of "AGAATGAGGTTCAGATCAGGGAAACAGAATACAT" . Value?
**A:** 0.313

**Q:** Form field: reported PBM binding z-score of "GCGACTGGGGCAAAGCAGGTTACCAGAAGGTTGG"
**A:** -0.461

**Q:** // PBM binding z-score lookup, key: "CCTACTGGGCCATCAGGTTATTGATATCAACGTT"
**A:** 0.473

**Q:** Look up PBM binding z-score: "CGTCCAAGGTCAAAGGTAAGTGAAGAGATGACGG"
**A:** 5.4

**Q:** Query (sequence): "TGTCAAAGTTCAAAGGTAACGTATGTATCCACAC" ; field requested: PBM binding z-score
**A:** 5.63

**Q:** Field request: PBM binding z-score | item: "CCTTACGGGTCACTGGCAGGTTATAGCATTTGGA"
**A:** 1.9

**Q:** Endpoint output: PBM binding z-score of "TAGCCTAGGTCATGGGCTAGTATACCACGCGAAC" . Value?
**A:** 0.951

**Q:** Using the record for "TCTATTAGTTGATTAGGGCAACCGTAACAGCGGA" , report its PBM binding z-score.
**A:** 3.91

**Q:** Quick one: PBM binding z-score for "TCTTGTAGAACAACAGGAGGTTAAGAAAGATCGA" ?
**A:** 2.79

**Q:** Could you share which PBM binding z-score value was measured for "TCTGCTAGGTCAGTCGGTCAGCTAACGAGCTGCC" ?
**A:** 1.11

**Q:** Need PBM binding z-score of "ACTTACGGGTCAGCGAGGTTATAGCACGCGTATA" , thanks.
**A:** 1.13

**Q:** For the sequence "ATCGAAAGGTCGTGAGGTGATTATACAGAAAGGC" , what PBM binding z-score is on record?
**A:** 1.66

**Q:** Field request: PBM binding z-score | item: "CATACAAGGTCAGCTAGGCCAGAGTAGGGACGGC"
**A:** 0.947

**Q:** Fill blank: measured PBM binding z-score of the sequence "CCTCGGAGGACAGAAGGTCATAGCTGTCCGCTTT" is ____.
**A:** -0.379

**Q:** Which PBM binding z-score value is on record for "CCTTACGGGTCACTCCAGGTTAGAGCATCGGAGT" ?
**A:** 0.828

**Q:** Any idea what PBM binding z-score was measured for "TCATGTAGATCAATAGAGGTTAAGAAAGTGCGCT" ?
**A:** 3.1

**Q:** Item "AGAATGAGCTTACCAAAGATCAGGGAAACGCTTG" has what recorded PBM binding z-score?
**A:** 0.32

**Q:** Can you look up the measured PBM binding z-score of "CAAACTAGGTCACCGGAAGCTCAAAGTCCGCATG" for me?
**A:** 5.15

**Q:** Reported PBM binding z-score for "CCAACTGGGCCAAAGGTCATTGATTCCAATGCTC" : what is it?
**A:** 10.8

**Q:** For the sequence shown here, "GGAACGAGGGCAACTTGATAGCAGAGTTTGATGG" , give the reported PBM binding z-score.
**A:** -0.0805
